Numbers sourced from PubChem BioAssay (NCATS).

experimentNotes: Cellular Toxicity (caspase-3) BJ (AID 658);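 as to caspase-3 activation: cells exposed to compound for 16 hours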
appliedConditions: BJ fibroblasts, luminescence; caspase-3 activation; series mostly up to 91.7 µM
Text: NIH Chemical Genomics Center [NCGC] NIH Molecular Libraries Screening Centers Network [MLSCN] National Institutes of Environmental Health Sciences [NIEHS] National Toxicology Program [NTP] We have developed a 1536-well cell-based assay for quantitative high throughput screening (qHTS) against a number of cell lines to determine in vitro caspase 3/7 activity of small molecules. […] 8. Detection; Luminescence; Viewlux plate reader […]
The source made the active and inactive calls. Calls follow the shape of the dose curve; as a rule, active = well fitted curve in the direction sought with a large enough effect; inconclusive = small, poorly fitted or top-dose-only effect, or another doubt; inactive = no such curve, though single readings can be large or run the other way.
Outcomes: t (active), f (inactive)

molecule=Nc1ccccc1O label=f
molecule=NC(=O)Nc1nc2ccccc2[nH]1 label=f
molecule=c1ccc2c(c1)ccc1ccccc12 label=f
molecule=O=C=Nc1ccc(Cl)c(Cl)c1 label=f
molecule=CCCCCCCCOc1ccc(C(=O)O)cc1 label=f
molecule=c1ccncc1 label=f
molecule=CCN(CC)c1ccc(N)cc1 label=f
molecule=CC(=O)Nc1cccc(C)c1 label=f
molecule=C[Si](C)(C)Cl label=f
molecule="CC(C)OCC1CO1 (centres undefined)" label=f
molecule="Cc1ccccc1OCC1CO1 (centres undefined)" label=f
molecule=Oc1c(Cl)cc(Cl)c(Cl)c1Cl label=f
molecule=O=Nc1ccc(Nc2ccccc2)cc1 label=f
molecule=Nc1ccc(N=Nc2ccccc2)c(N)c1 label=f
molecule=CCN(CC)c1ccc2c(C)cc(=O)oc2c1 label=f
molecule=Clc1nc2ccccc2nc1Cl label=f
molecule=c1ccc(Nc2cccc3ccccc23)cc1 label=f
molecule=Cc1ccc(S(N)(=O)=O)cc1 label=f
molecule=Oc1cc(Cl)cc(Cl)c1Cl label=f
molecule="C[C@@H]1CC2(OC(O)[C@]3(C)O[C@H]23)O[C@H]2C[C@@]3(C)[C@@H]4CC[C@H]5C(C)(C)C(O[C@@H]6OC[C@@H](O)[C@H](O)[C@H]6O)CC[C@@]56C[C@@]46CC[C@]3(C)[C@@H]12 (some centres undefined)" label=t
molecule=Nc1ccc2c(c1)C(=O)c1ccccc1C2=O label=f
molecule="CCOC(=O)C1OC1c1ccccc1 (centres undefined)" label=f
molecule=COc1cc(-c2ccc(N=C=O)c(OC)c2)ccc1N=C=O label=f
molecule=Nc1ccc(N)c(Cl)c1 label=f
molecule=Oc1ccc(O)c2c(O)cccc12 label=f
molecule=Cc1c2ccccc2c(C)c2c1ccc1ccccc12 label=f
molecule=CC/C=C/C/C=C/C/C=C/CCCCCCCC(=O)OCC label=f
molecule=Cc1ccc2ccc3cccc4ccc1c2c34 label=f
molecule=CC1=C(/C=C/C(C)=C/C=C/C(C)=C/C=O)C(C)(C)CCC1 label=f
molecule=CC(=O)OCc1ccc2c(c1)OCO2 label=f
molecule=OCC(CBr)(CBr)CBr label=f
molecule=CC(C)S label=f
molecule=c1ccc(SCCSc2ccccc2)cc1 label=f
molecule=CN(C)c1ccc(C(=N)c2ccc(N(C)C)cc2)cc1 label=f
molecule=Nc1cc(C(=O)O)c(O)c(S(=O)(=O)O)c1 label=f
molecule=CCc1ccc(C(c2ccc(CC)cc2)C(Cl)Cl)cc1 label=f
molecule=Cc1cc(-c2ccc(N=Nc3cc(S(=O)(=O)O)c4ccccc4c3N)c(C)c2)ccc1N=Nc1cc(S(=O)(=O)O)c2ccccc2c1N label=f
molecule=CC(CCC(=O)O)(c1ccc(O)cc1)c1ccc(O)cc1 label=f
molecule="CC(=O)OC1CC(C)OC(C)O1 (centres undefined)" label=f
molecule=CCOc1ccc2nc(N)sc2c1 label=f
molecule=O=[N+]([O-])c1ccc(F)cc1F label=f
molecule="CCCCC(CC)COP(=O)(OCC(CC)CCCC)OCC(CC)CCCC (centres undefined)" label=f
molecule="C=CC1CO1 (centres undefined)" label=f
molecule=O=C(Cl)c1ccc([N+](=O)[O-])cc1 label=f
molecule=O=[N+]([O-])c1cc(Cl)c(Cl)c(Cl)c1Cl label=f
molecule=CCCCNCC label=f
molecule=O=C(OCc1ccccc1)c1ccccc1O label=f
molecule=Cc1cc2nc(N)sc2cc1C label=f
molecule=OCC(CO)(CBr)CBr label=f
molecule="CC(=O)OC(C(=O)c1ccccc1)c1ccccc1 (centres undefined)" label=f
molecule=CC(/C=C/C=C(C)/C=C/C(=O)O)=C\C=C\C=C(C)\C=C\C=C(C)\C=C\C(=O)O label=f
molecule=OC1CCCCC1 label=f
molecule=Oc1cc2c(cc1O)[C@H]1c3ccc(O)c(O)c3OC[C@@]1(O)C2 label=f
molecule=CC(=O)CC(=O)Nc1ccccc1 label=f
